These entries and their values trace back to patent US9790200B2.

Target: human CYP11B1 (Homo sapiens)
Construct: The expression plasmids contains the ORF for either human/cyno CYP11B1 or CYP11B2; expressed in transfected cells
Sequence (P15538 25-503): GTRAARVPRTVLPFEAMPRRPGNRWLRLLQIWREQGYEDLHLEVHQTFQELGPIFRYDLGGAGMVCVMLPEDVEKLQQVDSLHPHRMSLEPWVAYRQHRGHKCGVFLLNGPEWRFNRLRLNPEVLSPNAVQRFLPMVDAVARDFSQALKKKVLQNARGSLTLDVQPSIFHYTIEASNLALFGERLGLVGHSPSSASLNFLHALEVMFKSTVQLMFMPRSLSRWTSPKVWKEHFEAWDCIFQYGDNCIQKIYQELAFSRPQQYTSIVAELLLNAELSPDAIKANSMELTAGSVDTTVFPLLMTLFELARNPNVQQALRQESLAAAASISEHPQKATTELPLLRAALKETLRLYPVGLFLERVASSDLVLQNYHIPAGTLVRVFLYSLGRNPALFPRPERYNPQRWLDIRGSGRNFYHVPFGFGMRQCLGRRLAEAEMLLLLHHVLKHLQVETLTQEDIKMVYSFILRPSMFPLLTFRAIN
Assay: G-402 cellular enzyme assay, human CYP11B1 (cortisol release, HTRF)
Format: cell-based
Settings: G-402 cells, 1 μM Deoxycortisol
Text: Herein we identified the use of the G-402 cell line as a host cell to ectopically express (transiently or stably) enzymes of the CYP11 family. […] Importantly the identified cell line G-402 expresses co-factors (adrenodoxin and adrenodoxin reductase) important for the activity of the CYP11 family and no relevant enzyme activity of the CYP11 family (in comparison to H295R cells) was detected in these cells. […]
pEC50: −log10 of the molar value.
quantity.kind: pEC50

Ask | Please state recorded pEC50 (tested on human CYP11B1 (Homo sapiens)) of CN1C(=O)CCc2c1ccc(-c1n[nH]cc1COC1CN(C(=O)c3cnn(C)c3)C1)c2F [Example 66]
Reply | < 7.52
